Target: T1, human PACAP38 (human, not fully specified; C-terminal lysine is amidated; N-terminal or C-terminal biotin in the HTRF and PC-12 cell binding assays)
T1 construct: synthetic peptide, bought; also called huPACAP (1-38)
T1 peptide: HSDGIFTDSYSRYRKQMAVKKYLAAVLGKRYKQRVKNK
Experiment: SPR, Ab immobilised
Excerpt: Binding affinities of monoclonal antibodies for human PACAP were estimated using SPR on the PROTEON™ XPR36 (Bio-Rad, Hercules, Calif.). Antibody was immobilized to the surface of general amine coupling (“GLC” or “GLM”) Chips (Bio-Rad, Hercules, Calif.). […]
OBSERVED_PROPERTY: pKd
Would you please state pKd, meaning minus log10 of the concentration in mol/L, as a bare number?

Example results:
>  <BINDER>
anti-PACAP antibody Ab9.H (antibody, human IgG1, kappa, N297A, V domains shown, humanized form of Ab9, full length) VH: EVQLVESGGGLVQPGGSLRLSCAASGFTVSRDYWICWVRQAPGKGLEWIGCISAGGGSTDYANWVNGRFTISRDISKNTGYLQMNSLRAEDTAVYYCAGNLEIWGQGTLVTVSS VL: DIQMTQSPSTLSASVGDRVTITCQSSPSIYSGAFLSWYQQKPGKAPKFLIYEASKLASGVPSRFSGSGSGTEFTLTISSLQPDDFATYYCLGFYDCSSVDCHAFGGGTKVEIKR

>  <VALUE_MEASURED>
10.21

$$$$
>  <BINDER>
anti-PACAP antibody Ab11 (antibody, human IgG1, kappa, N297A, V domains shown, full-length rabbit/human chimeric antibody) VH: QSVEESGGRLVTPGTPLTLTCTASGFSLSRYAMGWVRQAPGKGLEWIGDISTYGTTDYASWVNGRFTISRTSTTVTLKMTSLTTEDTATYFCARDYWLSLWGQGTLVTVSS VL: AAVLTQTPSPVSAAVGGTVTIKCQSSQSVYDNNALAWYQQKPGQPPKLLIYAASNLASGVPDRFSGSGSGTQFTLTISGVQCDDAATYYCLGGYDDAADNAFGGGTEVVVKR

>  <VALUE_MEASURED>
9.96

$$$$

--- query ---
Query: Which value of pKd has been reported for anti-PACAP antibody Ab6 (antibody, human IgG1, kappa, N297A, V domains shown, full-length rabbit/human chimeric antibody) VH: LEQSGGGAEGGLVKPGGSLELCCKASGFSLSSTYWMCWVRQAPGKGLEWIGCIYTGSGSTDYASWVNGQFTLSRDIDQSTGCLQLNSLTVADTAMYYCTKNFDLWGPGTLVTVSS VL: AQVLTQTPSSVSAAVGGTVTINCQSSPSVYSNNYLSWFQQKPGQPPKGLIADASTLASGVPSRFKGSGSGTQFTLTISGVQCDDAAAYYCLGYYDCGSTDCHAFGGGTEVVVKR in the records?
Reply: 9.85
